target: HLA-A*0201 (HLA-A2.1) (Homo sapiens, UniProt P04439, D140Y/D185E/D98H/E176V/E277Q/G131W/G231S/I119V/I121R/I166T/I218V/L300P/L318F/N151K/N90K/P208A/P217A/Q86G/Q94H/R138H/R169H/T345S); experiment: biochemical; type: binding
pIC50: −log10 of the molar value. No end group written: not given here.

{"Record Sequence": "NVAEGKEVLV [Peptide 9013.0133]", "Limit Qualifier": "<", "pIC50": 4.70}
{"Record Sequence": "RMLQQLLFV [Peptide 1525.16]", "Limit Qualifier": "=", "pIC50": 7.68}
{"Record Sequence": "RLTVTTITVYA [Peptide 9013.0305]", "Limit Qualifier": "=", "pIC50": 6.61}
{"Record Sequence": "FLGALKSFL [Peptide 1578.11]", "Limit Qualifier": "=", "pIC50": 6.14}
{"Record Sequence": "RTLQQLLFV [Peptide 1525.15]", "Limit Qualifier": "=", "pIC50": 6.92}
{"Record Sequence": "VLAEAMSAA [Peptide 1516.11]", "Limit Qualifier": "=", "pIC50": 7.62}
{"Record Sequence": "FLGAFKKFL [Peptide 1578.22]", "Limit Qualifier": "=", "pIC50": 5.23}

----------
Quick list: pIC50 per entry.
biological target: DRB3*0101 (Homo sapiens, UniProt P01903+P79483); test: biochemical; format: binding
pIC50: −log10 of the molar value.
Attribute Measured: pIC50

{"Compound": "CC[C@H](C)[C@H](NC(=O)[C@H](Cc1c[nH]cn1)NC(=O)[C@H](CCSC)NC(=O)[C@H](CCCCN)NC(=O)[C@@H](NC(=O)[C@H](CCCCN)NC(=O)[C@H](CCC(N)=O)NC(=O)[C@@H](NC(=O)[C@H](CO)NC(=O)[C@H](Cc1ccccc1)NC(=O)[C@H](CC(N)=O)NC(=O)CNC(=O)[C@@H](N)[C@@H](C)O)[C@@H](C)O)C(C)C)C(=O)N[C@@H](Cc1c[nH]cn1)C(=O)N[C@@H](CO)C(=O)O [Peptide 68.0105]", "Result": "< 4.70"}
{"Compound": "CSCC[C@H](NC(=O)[C@@H](NC(=O)[C@H](CCCCN)NC(=O)[C@@H](NC(=O)[C@H](C)NC(=O)[C@H](CC(=O)O)NC(=O)[C@@H](N)[C@@H](C)O)C(C)C)C(C)C)C(=O)N[C@@H](CC(=O)O)C(=O)N[C@@H](CC(C)C)C(=O)N1CCC[C@H]1C(=O)N[C@H](C(=O)N[C@@H](CCC(N)=O)C(=O)N[C@@H](CCC(=O)O)C(=O)N1CCC[C@H]1C(=O)N[C@@H](C)C(=O)O)[C@@H](C)O [Peptide 68.0074]", "Result": "< 4.70"}
{"Compound": "CC[C@H](C)[C@H](NC(=O)[C@@H]1CCCN1C(=O)[C@H](CCC(N)=O)NC(=O)[C@@H](N)Cc1c[nH]c2ccccc12)C(=O)N1CCC[C@H]1C(=O)N[C@H](C(=O)N[C@@H](Cc1c[nH]cn1)C(=O)N[C@H](C(=O)N[C@H](C(=O)N1CCC[C@H]1C(=O)N[C@@H](CC(C)C)C(=O)N[C@@H](CO)C(=O)N[C@@H](CCC(=O)O)C(=O)N[C@@H](CC(=O)O)C(=O)N[C@@H](CCC(N)=O)C(=O)O)C(C)C)[C@@H](C)O)C(C)C [Peptide 68.0039]", "Result": "< 4.70"}
